Numbers sourced from patent US20100303808A1.

TARGET SYSTEM: T1, human CD20 (human, UniProt P11836 1-297)
T1 construct: whole, on cells; also called human B-lymphocyte-restricted differentiation antigen; Bp35
T1 sequence (looked up): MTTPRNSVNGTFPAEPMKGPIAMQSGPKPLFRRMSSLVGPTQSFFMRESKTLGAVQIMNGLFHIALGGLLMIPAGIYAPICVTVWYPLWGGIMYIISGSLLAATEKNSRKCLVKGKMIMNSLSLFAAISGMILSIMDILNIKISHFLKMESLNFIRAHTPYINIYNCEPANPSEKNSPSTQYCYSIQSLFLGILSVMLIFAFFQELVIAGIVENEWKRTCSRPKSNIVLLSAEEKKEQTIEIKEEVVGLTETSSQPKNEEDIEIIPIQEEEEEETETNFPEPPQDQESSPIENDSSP
ASSAY OVERVIEW: dissociation of DyLight 488-labelled antibody from Raji cells at 37 C in excess unlabelled antibody, FACS MFI; average of Studies 1 and 2
Parameters: unit not given here
PARAMETER: Half-life (dissociation from Raji cells), average
Numbers only.

Study these solved cases before continuing.
binder="1F5RHA x 1F5RKB11 (antibody, human IgG1, kappa, V domains shown, also called RHA x RKB11; Variant D) VH: QVQLVQSGAEVKKPGASVKVSCKASGYTFTSYNMHWVRQAPGQRLEWIGAIYPGNGDTSYNQKFKGRVTVTRDTSANTAYMELSSLKSEDTAVYYCARSHYGSNYVDYFDYWGQGTLVTVSS VL: EIVLTQSPSSLSASVGDRVTITCRASSSLSFMHWYQQKPGKAPKPWIYATSNLASGVPSRFSGSGSGTDYTLTISSLQPEDFATYFCHQWSSNPLTFGGGTKVEIKR" quantitative_readout=52
binder="1F5RHA x 1F5RKG11 (antibody, human IgG1, kappa, V domains shown, also called RHA x RKG11; 1F5RKG11 x 1F5RHA) VH: QVQLVQSGAEVKKPGASVKVSCKASGYTFTSYNMHWVRQAPGQRLEWIGAIYPGNGDTSYNQKFKGRVTVTRDTSANTAYMELSSLKSEDTAVYYCARSHYGSNYVDYFDYWGQGTLVTVSS VL: EIVLTQSPSSLSASVGDRVTITCRASSSLSFMHWYQQKPGKAPKPLIYATSNLASGVPSRFSGSGSGTDFTLTISSLQPEDFATYYCHQWSSNPLTFGGGTKVEIKR" quantitative_readout=65

Please find the next binder below.
**Query** Value lookup for Half-life (dissociation from Raji cells), average; key = chimeric antibody c1F5 (c1F5VH x c1F5VK) (antibody, human IgG1, kappa, V domains shown, Mouse 1F5 variable regions on human gamma1 / kappa constant regions; also called chimeric 1F5) VH: QVQLRQPGAELVKPGASVKMSCKASGYTFTSYNMHWVKQTPGQGLEWIGAIYPGNGDTSYNQKFKGKATLTADKSSSTAYMQLSSLTSEDSAVYYCARSHYGSNYVDYFDYWGQGTLVTVST VL: QIVLSQSPAILSASPGEKVTMTCRASSSLSFMHWYQQKPGSSPKPWIYATSNLASGVPARFSGSGSGTSYSLTISRVEAEDAATYFCHQWSSNPLTFGAGTKVEIKR
**Result** 58
